The measurements presented in this section are drawn from ChEMBL document CHEMBL3616442.

tested on: K562; assay: Growth inhibition of human K562 cells after 48 hrs by sulforhodamine B assay; format: functional; conditions: K562, 48 h
Entries are grouped by GI50 into these classes: L (below 400 nM), M (400 nM to below 1000 nM), H (1000 nM or more)

>  <smiles-repr>
O=C(/C(=C\c1c(-c2ccccc2)[nH]c2ccccc12)S(=O)(=O)c1ccccc1)c1ccccc1

>  <class>
H

$$$$
>  <smiles-repr>
COc1ccc(-c2[nH]c3ccccc3c2C=C(C#N)C#N)cc1

>  <class>
L

$$$$
>  <smiles-repr>
COc1ccc(-c2[nH]c3ccc(OC)cc3c2/C=C(\C#N)S(=O)(=O)c2ccccc2)cc1

>  <class>
M

$$$$
>  <smiles-repr>
N#CC(C#N)=Cc1c(-c2ccccc2)[nH]c2ccccc12

>  <class>
M

$$$$
>  <smiles-repr>
COc1ccc(-c2[nH]c3ccccc3c2/C=C(\C#N)S(=O)(=O)c2ccccc2)cc1

>  <class>
M

$$$$

Prompt line: Using the reported GI50, which band applies to COc1ccc2[nH]c(-c3ccccc3)c(/C=C(\C#N)S(=O)(=O)c3ccccc3)c2c1 ?
Response line: H
